Give TGase activity remaining (% of DMSO control = 100) for every item shown.
Tested on: transglutaminase (TGase)
Assay: Measurement of TG (TGase inhibitory activity, monodansyl cadaverine / N,N-dimethylcasein fluorescence, FDSS 3000)
Assay type: biochemical
Settings: TGase inhibitory activity value, Table 1
Answers are plain numbers.

Give one value of TGase activity remaining (% of DMSO control = 100) per listed molecule.
1. CNCCOB(c1cc(Cl)ccc1F)c1cc(Cl)ccc1F
2. Fc1cc(B(OCCNc2ccccc2)c2ccc(Cl)c(F)c2)ccc1Cl
3. c1cc(B(OCC2CCCN2)c2ccc3sc4ccc(B(OCC5CCCN5)c5ccsc5)cc4c3c2)cs1 (stereo not drawn)

1. 122
2. 88
3. 81

Give one value of TGase activity remaining (% of DMSO control = 100) per listed molecule.
1. N#Cc1ccc(B(O)c2cccc(COCc3cccc(B(O)c4ccc(C#N)cc4)c3)c2)cc1
2. Cc1ccc(B(SCCN(C)C)c2ccc(C)c(Cl)c2)cc1Cl
3. Nc1ccccc1SB(c1ccccc1)c1ccccc1

1. 95
2. 107
3. 2

----------
Test system: transglutaminase (TGase)
Experiment: Measurement of TG (TGase inhibitory activity, monodansyl cadaverine / N,N-dimethylcasein fluorescence, FDSS 3000)
Format: biochemical
Settings: TGase inhibitory activity value, Table 1
Give TGase activity remaining (% of DMSO control = 100) for every item shown.
Answers are plain numbers.

INSERT INTO results (molecule, tgt, meas_value) VALUES
  ('OB(c1ccccc1)c1ccccc1CCOCc1ccccc1B(O)c1ccccc1 [Example 368]', 'transglutaminase (TGase)', 52),
  ('Cc1ccc(B(O)c2ccc(Oc3ccc(B(O)c4ccc(C)cc4)cc3)cc2)cc1 [Example 365]', 'transglutaminase (TGase)', 118),
  ('N#Cc1ccc(B(SCCN)c2ccc(C#N)cc2)cc1 [Example 106]', 'transglutaminase (TGase)', 23),
  ('c1ccc(B(OCCN2CCN(CCOB(c3ccccc3)c3ccccc3)CC2)c2ccccc2)cc1 [Example 356]', 'transglutaminase (TGase)', 126),
  ('Cc1ccc(B(OC(c2ccccc2)C(N)c2ccccc2)c2ccc(C)c(Cl)c2)cc1Cl (centres unmarked) [Example 225]', 'transglutaminase (TGase)', 109),
  ('OB(c1ccccc1)c1ccc(B(O)c2ccccc2)c2ccccc12 [Example 135, 1,4-bis(phenylhydroxyboryl)naphthalene]', 'transglutaminase (TGase)', 99),
  ('NCCC(N)C(=O)OB(c1ccc(Cl)c(F)c1)c1ccc(Cl)c(F)c1 (centres unmarked) [Example 95]', 'transglutaminase (TGase)', 114);

Proceeding to the next molecule to report its TGase activity remaining (% of DMSO control = 100).
Read off the recorded TGase activity remaining (% of DMSO control = 100) for FC(F)(F)c1ccc(C(OB(c2ccccc2)c2ccc(COCc3ccc(B(OC(c4ccc(C(F)(F)F)cc4)c4ccccn4)c4ccc(COCc5ccc(B(OC(c6ccc(C(F)(F)F)cc6)c6ccccn6)c6ccccc6)cc5)cc4)cc3)cc2)c2ccccn2)cc1 (centres unmarked) [Example 192]
102

----------
Tested on: transglutaminase (TGase)
Test: Measurement of TG (TGase inhibitory activity, monodansyl cadaverine / N,N-dimethylcasein fluorescence, FDSS 3000)
Assay type: biochemical
Conditions: TGase activity with compound (10 mM, 1 μL in 0.1 ml enzyme reaction solution); DMSO control taken as 100
PARAMETER: TGase activity remaining (% of DMSO control = 100)
Give bare numbers.

Worked examples follow.
INSERT INTO assay_data (compound, tgt, meas_value) VALUES
  ('NCCOB(c1ccccc1)c1cccc(COCc2cccc(Oc3ccccc3)c2)c1', 'transglutaminase (TGase)', 2),
  ('CN(C)CCOB(c1ccc(Cl)c(F)c1)c1ccc(Cl)c(F)c1', 'transglutaminase (TGase)', 114),
  ('Cc1cc(B(OCCN)c2ccc(COCc3ccc(B(OCCN)c4ccc(Cl)c(C)c4)cc3)cc2)ccc1Cl', 'transglutaminase (TGase)', 115);

Give one value of TGase activity remaining (% of DMSO control = 100) per listed compound.
1. CCC(N)COB(c1ccccc1)c1ccccc1 (stereo not shown) [Example 228, diphenyl 2-aminobutylborinate]
2. NCC(CN)OB(c1ccc(Cl)c(F)c1)c1ccc(Cl)c(F)c1
3. CCN(CC)CC.CN(C)c1ccc2c(-c3ccc(NC(=S)NCC(N)C(=O)OB(c4ccccc4)c4ccccc4)cc3C(=O)[O-])c3ccc(=[N+](C)C)cc-3oc2c1 (stereo not shown)
4. Cc1ccc(B(OCC2CCCCN2C)c2ccc(C)c(Cl)c2)cc1Cl (stereo not shown)
5. OB(c1cccc(COCc2cccc(B(O)c3cccc4ccccc34)c2)c1)c1cccc2ccccc12

[99, 80, 5, 109, 104]

Give one value of TGase activity remaining (% of DMSO control = 100) per listed compound.
1. CCCNCCOB(c1ccc(C(F)(F)F)cc1)c1ccc(C(F)(F)F)cc1
2. OB(c1ccccc1)c1cccc(COCc2ccccc2B(O)c2ccccc2)c1
3. Cc1ccc(B(OC(=O)C(N)CCC(N)=O)c2ccc(C)c(Cl)c2)cc1Cl (stereo not shown)
4. NCCOB(c1ccccc1)c1ccc(COCc2ccccc2B(OCCN)c2ccccc2)cc1
5. COc1ccc(C(OB(c2ccccc2)c2ccc(COCc3ccc(B(OC(c4ccc(OC)cc4)c4ccccn4)c4ccccc4)cc3)cc2)c2ccccn2)cc1 (stereo not shown)

[91, 89, 137, 91, 81]

----------
Tested on: transglutaminase (TGase)
Assay: Measurement of TG (TGase inhibitory activity, monodansyl cadaverine / N,N-dimethylcasein fluorescence, FDSS 3000)
Format: biochemical
Conditions: TGase inhibitory activity measurement; unit not given
TGase activity remaining (% of DMSO control = 100) less than 80 is criterion met; TGase activity remaining (% of DMSO control = 100) greater than or equal to 80 is criterion not met.

Examples with answers:
INSERT INTO results (molecule, answer_label) VALUES
  ('COc1ccc(C(OB(c2ccccc2)c2ccc(COc3ccc(B(OC(c4ccc(OC)cc4)c4ccccn4)c4ccccc4)cc3)cc2)c2ccccn2)cc1 (stereo not drawn) [Example 430]', 'criterion not met'),
  ('c1ccc(B(OCC2CCCN2)c2cccc(COCc3cccc(B(OCC4CCCN4)c4ccccc4)c3)c2)cc1 (stereo not drawn) [Example 460]', 'criterion met'),
  ('NCCC(N)C(=O)OB(c1ccc(Oc2ccc(B(OC(=O)C(N)CCN)c3cccc4ccccc34)cc2)cc1)c1cccc2ccccc12 (stereo not drawn) [Example 445]', 'criterion not met');

Please let me know if Cc1ccc(B(OCCN(C)C)c2ccc(Oc3ccc(B(OCCN(C)C)c4ccc(C)cc4)cc3)cc2)cc1 [Example 446] shows TGase activity remaining (% of DMSO control = 100) below 80.
criterion met

Please let me know if CN(C)CCOB(c1ccc(COCc2ccc(B(OCCN(C)C)c3ccc(F)c(F)c3)cc2)cc1)c1ccc(F)c(F)c1 [Example 418] shows TGase activity remaining (% of DMSO control = 100) below 80.
criterion met

Please let me know if NCC(OB(c1ccccc1)c1cccc(COCc2cccc(B(OC(CN)c3ccccc3)c3ccccc3)c2)c1)c1ccccc1 (stereo not drawn) [Example 468] shows TGase activity remaining (% of DMSO control = 100) below 80.
criterion met

Please let me know if c1ccc(B(OCC2CCCN2)c2ccc(COCc3ccc(B(OCC4CCCN4)c4ccccc4)cc3)cc2)cc1 (stereo not drawn) [Example 452] shows TGase activity remaining (% of DMSO control = 100) below 80.
criterion met

----------
Test system: transglutaminase (TGase)
Assay: Measurement of TG (TGase inhibitory activity, monodansyl cadaverine / N,N-dimethylcasein fluorescence, FDSS 3000)
Format: biochemical
Details: TGase inhibitory activity measurement; unit not given
PARAMETER: TGase activity remaining (% of DMSO control = 100)
Numbers only.

Worked examples follow.
INSERT INTO measurements (molecule, meas_value) VALUES
  ('CN1CCCCC1COB(c1ccccc1)c1ccc(COCc2ccc(B(OCC3CCCCN3C)c3ccccc3)cc2)cc1 (stereo not shown) [Example 457]', 30),
  ('Cc1ccc(B(OCCN)c2ccc(COCc3ccc(B(OCCN)c4ccc(C)c(Cl)c4)cc3)cc2)cc1Cl [Example 420]', '−3');

Give one value of TGase activity remaining (% of DMSO control = 100) per listed molecule.
1. c1ccc(B(OCC2CCCN2)c2ccc3sc4ccc(B(OCC5CCCN5)c5ccccc5)cc4c3c2)cc1 (stereo not shown) [Example 483]
2. CNCCOB(c1ccc(COc2ccc(B(OCCNC)c3ccc(C(F)(F)F)cc3)cc2)cc1)c1ccc(C(F)(F)F)cc1 [Example 402]
3. NC(COB(c1ccccc1)c1cccc(COCc2cccc(B(OCC(N)c3ccccc3)c3ccccc3)c2)c1)c1ccccc1 (stereo not shown) [Example 462]

1: 107; 2: −12; 3: 31

Give one value of TGase activity remaining (% of DMSO control = 100) per listed molecule.
1. OB(c1ccc(Oc2ccc(B(O)c3cccc4ccccc34)cc2)cc1)c1cccc2ccccc12 [Example 439]
2. CN(C)CCOB(c1ccc(COc2ccc(B(OCCN(C)C)c3ccc(C(F)(F)F)cc3)cc2)cc1)c1ccc(C(F)(F)F)cc1 [Example 401]

1. 33
2. 121
